Numbers sourced from patent US20160200831A1.

target: T1, cyno PAI-1 captured on immobilized human vitronectin (cynomolgus monkey; human, UniProt P04004 20-478, limits assumed); assay: Biacore, cPAI-1 on vitronectin chip, two state reaction model (kd1)
T1 construct: non-covalent complex formed on the chip; also called cPAI-1/Vn
T1 sequence (chain, as listed by the source limits assumed, chain 1 of 2): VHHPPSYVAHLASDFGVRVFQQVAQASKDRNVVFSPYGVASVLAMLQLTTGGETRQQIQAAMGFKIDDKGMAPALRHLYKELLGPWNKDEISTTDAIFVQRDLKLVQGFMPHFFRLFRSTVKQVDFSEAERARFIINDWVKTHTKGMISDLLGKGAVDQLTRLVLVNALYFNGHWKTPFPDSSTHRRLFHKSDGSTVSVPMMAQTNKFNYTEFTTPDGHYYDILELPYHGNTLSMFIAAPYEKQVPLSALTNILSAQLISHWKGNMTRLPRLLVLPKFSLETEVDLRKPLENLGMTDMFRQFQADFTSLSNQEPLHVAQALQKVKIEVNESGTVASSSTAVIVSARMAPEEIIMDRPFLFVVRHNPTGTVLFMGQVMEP
T1 sequence (P04004 20-478 limits assumed, chain 2 of 2): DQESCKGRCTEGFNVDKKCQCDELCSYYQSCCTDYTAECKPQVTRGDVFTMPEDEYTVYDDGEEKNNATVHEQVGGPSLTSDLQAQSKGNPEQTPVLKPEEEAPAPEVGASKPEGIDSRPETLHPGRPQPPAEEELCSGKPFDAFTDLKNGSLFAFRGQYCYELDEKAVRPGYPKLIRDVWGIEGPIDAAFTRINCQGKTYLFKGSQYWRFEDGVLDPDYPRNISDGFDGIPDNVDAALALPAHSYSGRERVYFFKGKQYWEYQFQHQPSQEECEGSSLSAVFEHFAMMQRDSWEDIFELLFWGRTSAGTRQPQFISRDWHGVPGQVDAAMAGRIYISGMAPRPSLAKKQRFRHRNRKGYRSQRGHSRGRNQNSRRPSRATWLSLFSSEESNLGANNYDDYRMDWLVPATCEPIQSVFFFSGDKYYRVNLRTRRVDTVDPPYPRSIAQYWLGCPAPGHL
Exercise: state measured koff for each of the binders provided.
API: value field is a number in s⁻¹; no unit string.

Q: Query koff for A44-hv4 (antibody, V domains shown, humanized A44, HEK293; constant regions as for A44-hv1; also called LC1a x HC2b; variant 4) VH: EMTLKESGPTLVKPTQTLSLTCSVTGDSMTQGYWNWIRKFPGKALEYMGYITYSGSTYYNPSLKGRISITRNTSKNQYYLTLSSVTTVDTATYYCARWHYGSPYYFDYWGQGTTLTVSS VL: DIKMTQSPSSLSASVGDRVTITCKASQDINSYLSWLQQKPGKSPKTLIYRANRSVDGVPSRFSGSGSGQDYSLTISSLQPEDLGIYYCLQYDEFPPTFGGGTKLEIK
Result: 0.00017

Q: Query koff for A44-hv1 (antibody, V domains shown, humanized A44, HEK293; also called LC1a x HC1a; variant 1) VH: EMTLKESGPTLVKPTQTLSLTCSVTGDSMTNGYWNWIRKFPGKALEYMGYITYSGSTYYNPSLKGRISITRNTSKNQYYLTLSSVTTVDTATYYCARWHYGSPYYFDYWGQGTTLTVSS VL: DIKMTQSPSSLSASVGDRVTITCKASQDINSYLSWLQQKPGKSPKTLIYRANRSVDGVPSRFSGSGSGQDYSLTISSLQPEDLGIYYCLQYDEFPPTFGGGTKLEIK
Result: 0.00827

Q: Query koff for A44-hv7 (antibody, V domains shown, humanized A44, HEK293; constant regions as for A44-hv1; also called LC4 x HC4; variant 7) VH: QMTLKESGPTLVKPTQTLSLTCSVSGESMTQGYWNWIRQFPGKALEYMGYITYSGSTYYNPSLKGRITITRQTSKNQYYLTLSSVTTVETATYYCARWHYGSPYYFDYWGQGTTLTVSS VL: DIKMTQSPSSLSASVGDRVTITCKASQDINSYLSWLQQKPGKSPKTLIYRAQRSVEGVPSRFSGSGSGQDYSLTISSLQPEDLATYYCLQYDEFPPTFGGGTKLEIK
Result: 0.000239
